The measurements presented in this section are drawn from ChEMBL document CHEMBL2439996.

Give measured pIC50 for each item. Keep answers brief.
# Test system: MDCK
# test-name: Cytotoxicity against MDCK cells after 4 days by MTT assay
# Type: cell-based
# setup-conditions: Canis lupus familiaris, 96 h
pIC50: −log10 of the molar value.

Illustrative cases are given below, each with its answer.
| smiles-entry | target-or-system | pIC50 |
| --- | --- | --- |
| O=c1[nH]c(-c2ccc(F)cc2)ccc1O | MDCK | < 4.00 |
| O=c1[nH]c(-c2ccc(F)cc2)c(-c2ccc(F)cc2)cc1O | MDCK | < 4.00 |
| O=c1[nH]cc(-c2ccc(F)cc2)cc1O | MDCK | < 4.00 |
| O=c1[nH]c(-c2ccccc2)ccc1O | MDCK | 4.22 |
| O=c1[nH]cc(-c2ccc(-c3nnn[nH]3)cc2)cc1O | MDCK | < 4.00 |

Could you report pIC50 for every entry in the following list?
1. N#Cc1ccc(-c2c[nH]c(=O)c(O)c2)cc1
2. O=c1[nH]c(-c2ccc(-c3nnn[nH]3)cc2)c(-c2ccc(-c3nnn[nH]3)cc2)cc1O

["< 4.00", "< 4.00"]
